Each entry below carries its recorded Kd.
- EXPERIMENTAL TARGET: T1, ENAH EVH1 domain (monomeric, wild type) (human, UniProt Q03173 1-111 (mouse entry))
- T1 construct: ENAH residue numbers in the text count from the Met at position 25 of this entry; also called ENAH EVH1 WT; Mena EVH1 WT
- T1 sequence (Q03173 other isoform, or with tags, fused parts or gaps limits assumed): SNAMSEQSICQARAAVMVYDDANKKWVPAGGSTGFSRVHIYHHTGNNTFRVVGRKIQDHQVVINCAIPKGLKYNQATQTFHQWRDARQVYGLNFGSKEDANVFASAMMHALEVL
- ASSAY DETAILS: BLI, steady state; SUMO-peptide immobilised, EVH1 monomer in solution
The reply must contain the numeric value and, after it, the unit.

- NHSL1 FP4 2 peptide (biotinylated (BAP tag), Truncation of the NHSL1 36mer that keeps the second FP4 motif, tested as a SUMO fusion) peptide: MAGGLNDIFEAQKIEWHEDTGGSSHHHHHHGSGSGSDSEVNQEAKPEVKPEVKPETHINLKVSDGSSEIFFKIKKTTPLRRLMEAFAKRQGKEMDSLTFLYDGIEIQADQTPEDLDMEDNDIIEAHREQIGGSGSGPVTDCSQGSPLPHSPVFPPPPPEAL: 24.4 µM
- LPP FP4 1 peptide (biotinylated (BAP tag), Truncation of the LPP 36mer that keeps the first FP4 motif, tested as a SUMO fusion) peptide: MAGGLNDIFEAQKIEWHEDTGGSSHHHHHHGSGSGSDSEVNQEAKPEVKPEVKPETHINLKVSDGSSEIFFKIKKTTPLRRLMEAFAKRQGKEMDSLTFLYDGIEIQADQTPEDLDMEDNDIIEAHREQIGGSGSGKQPGGEGDFLPPPPPPLDDSSALPSISGN: 12.4 µM

We now examine a further binder.
Any idea what Kd was measured for NHSL1 36mer peptide (biotinylated (BAP tag), Tested as a BAP-6xHis-SUMO-peptide fusion in BLI and ITC) peptide: MAGGLNDIFEAQKIEWHEDTGGSSHHHHHHGSGSGSDSEVNQEAKPEVKPEVKPETHINLKVSDGSSEIFFKIKKTTPLRRLMEAFAKRQGKEMDSLTFLYDGIEIQADQTPEDLDMEDNDIIEAHREQIGGSGSGADRSPFLPPPPPVTDCSQGSPLPHSPVFPPPPPEAL ?
8.56 µM
